Where these numbers come from: paper PMC2665239

Target: T1, ttPolX (Thermus thermophilus HB8, UniProt Q5SJ64 1-575)
T1 sequence: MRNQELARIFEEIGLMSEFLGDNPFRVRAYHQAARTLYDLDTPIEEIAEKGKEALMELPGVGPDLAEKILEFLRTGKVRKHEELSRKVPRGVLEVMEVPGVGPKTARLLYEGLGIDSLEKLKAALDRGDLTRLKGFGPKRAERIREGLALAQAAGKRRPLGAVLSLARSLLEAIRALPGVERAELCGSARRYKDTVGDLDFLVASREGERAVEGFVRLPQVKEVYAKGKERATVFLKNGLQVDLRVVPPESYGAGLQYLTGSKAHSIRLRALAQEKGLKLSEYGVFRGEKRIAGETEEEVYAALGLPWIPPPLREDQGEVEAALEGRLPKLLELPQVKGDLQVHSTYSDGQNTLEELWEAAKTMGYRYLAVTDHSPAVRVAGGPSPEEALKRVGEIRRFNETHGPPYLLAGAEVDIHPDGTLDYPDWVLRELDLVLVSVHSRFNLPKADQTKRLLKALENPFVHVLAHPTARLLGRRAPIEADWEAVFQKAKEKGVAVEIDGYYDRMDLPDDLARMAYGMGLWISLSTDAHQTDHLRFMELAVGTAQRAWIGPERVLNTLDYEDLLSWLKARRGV
Experiment: EMSA
measured.parameter: Kd
Reply with the number, then its unit.

I'd like to know its Kd. The binder in question is CACTGGCGGTCGTTCTATCGGGTGTTGCTTTAGTTGTCAT (ssDNA) [40T ssDNA]
1.2 µM
